Recorded values, source paper PMC10661773.

# System: MCF10A
# MEASUREMENT NOTES: Cell viability, MTT assay at 48 h
# Type: cell-based
# CONDITION INFO: Homo sapiens, MCF-10A, read-out: EC50 ± SEM, normal cells MCF10A
PROPERTY LABEL: pEC50
// pEC50 is dimensionless: -log10 of concentration (M)

STRUCTURE: CN(C)C(=S)N/N=C1\C(=O)Nc2ccccc21
REPORTED MEASUREMENT: 5.68
//
STRUCTURE: COc1cc2c(cc1OC)CN(CCCCN1C(=O)/C(=N\NC(=S)N(C)C)c3ccccc31)CC2
REPORTED MEASUREMENT: 4.62
//
STRUCTURE: CN(C)C(=S)N/N=C1\C(=O)N(CCCCN2CCN(C3CCCCC3)CC2)c2ccccc21
REPORTED MEASUREMENT: 5.52

The measured pEC50 associated with CN(C)C(=S)N/N=C1\C(=O)N(CCCCN2CCC3(CC2)OCc2ccccc23)c2ccccc21 reads 5.37

---

# TARGET ENTITY: P-gp (Homo sapiens)
# Construct: expressed in transfected cells; host or cells: MDCK-MDR1
# Sequence (P08183 whole entry): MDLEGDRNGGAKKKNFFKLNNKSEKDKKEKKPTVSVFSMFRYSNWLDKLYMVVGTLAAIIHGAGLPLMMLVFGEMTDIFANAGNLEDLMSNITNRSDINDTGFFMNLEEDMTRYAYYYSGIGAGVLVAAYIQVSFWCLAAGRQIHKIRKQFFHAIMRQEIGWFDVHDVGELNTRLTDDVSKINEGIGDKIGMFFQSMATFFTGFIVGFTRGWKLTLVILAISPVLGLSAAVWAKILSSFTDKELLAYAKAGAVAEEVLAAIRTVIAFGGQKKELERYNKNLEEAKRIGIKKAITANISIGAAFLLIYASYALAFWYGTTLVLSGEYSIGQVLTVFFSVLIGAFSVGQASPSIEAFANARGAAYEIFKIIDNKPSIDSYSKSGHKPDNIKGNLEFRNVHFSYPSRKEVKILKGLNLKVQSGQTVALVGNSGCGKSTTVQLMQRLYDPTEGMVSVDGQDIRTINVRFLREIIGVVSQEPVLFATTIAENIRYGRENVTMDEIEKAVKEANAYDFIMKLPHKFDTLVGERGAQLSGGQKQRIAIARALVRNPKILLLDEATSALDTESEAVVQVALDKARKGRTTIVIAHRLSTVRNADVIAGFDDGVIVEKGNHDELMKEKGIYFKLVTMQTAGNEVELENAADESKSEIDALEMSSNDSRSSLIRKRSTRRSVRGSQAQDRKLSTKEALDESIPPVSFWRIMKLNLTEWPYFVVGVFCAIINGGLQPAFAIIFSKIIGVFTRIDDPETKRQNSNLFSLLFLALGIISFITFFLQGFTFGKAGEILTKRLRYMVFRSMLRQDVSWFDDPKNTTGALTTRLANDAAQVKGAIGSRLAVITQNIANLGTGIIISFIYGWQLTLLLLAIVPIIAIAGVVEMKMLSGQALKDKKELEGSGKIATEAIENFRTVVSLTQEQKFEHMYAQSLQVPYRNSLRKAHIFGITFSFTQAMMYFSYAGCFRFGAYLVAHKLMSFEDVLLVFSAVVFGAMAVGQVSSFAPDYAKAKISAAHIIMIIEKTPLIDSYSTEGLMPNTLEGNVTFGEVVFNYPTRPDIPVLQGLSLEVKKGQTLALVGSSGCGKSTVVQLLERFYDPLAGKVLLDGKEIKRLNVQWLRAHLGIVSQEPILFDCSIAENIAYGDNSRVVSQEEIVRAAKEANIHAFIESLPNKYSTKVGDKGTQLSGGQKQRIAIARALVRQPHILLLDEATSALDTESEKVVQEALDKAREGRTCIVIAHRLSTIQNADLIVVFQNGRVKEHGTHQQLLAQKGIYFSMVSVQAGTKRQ
# MEASUREMENT NOTES: P-gp activity, Calcein-AM assay in MDCK-MDR1 cells
# Assay type: cell-based
# CONDITION INFO: read-out: P-gp Activity EC50 ± SEM
PROPERTY LABEL: EC50 (µM)
# number only, unit µM dropped from output

Item: CN(C)C(=S)N/N=C1\C(=O)N(CCCCN2CCC3(CC2)OCc2ccccc23)c2ccccc21 | EC50: 3.8

---

# Test system: MCF7 and A549 cell lines
# MEASUREMENT NOTES: Cytotoxic activity across the two tumor cell lines (MTT)
# Type: cell-based
# CONDITION INFO: Homo sapiens; MCF7 and A549, MTT 48 h; read-out: EC50 range in the two tumor cell lines
# Method: Human MCF7 breast adenocarcinoma (#HTB-22) and human A549 carcinoma (#CCL-85) cell lines, non-tumor human breast (MCF10A, #CRL-10317) and lung (BEAS-2B, #CRL-9482) cells were obtained from American Type Culture Collection (ATCC, Bethesda, MD). […] Cell growth was determined using the MTT assay at 48 h. […] Formazan crystals were solubilized using 100 μl of DMSO/EtOH (1:1) and absorbance values at 570 and 630 nm were determined on the microplate reader Victor 3 from PerkinElmer Life Sciences (Waltham, MA).
pEC50: −log10 of the molar value.
PROPERTY LABEL: pEC50

For reference, reported pEC50 for CN(C)C(=S)N/N=C1\C(=O)N(CCCCN2CCC3(CC2)OCc2ccccc23)c2ccccc21 [FA4] stands at 5.74 to 5.82

---

# System: MCF7
# MEASUREMENT NOTES: Cell viability, MTT assay at 48 h
# Assay type: cell-based
# CONDITION INFO: Homo sapiens, MCF7; MTT, 48 h; read-out: EC50 ± SEM, tumor cells MCF7
PROPERTY LABEL: EC50 (µM)
Give your result in µM as a bare value.

CN(C)C(=S)N/N=C1\C(=O)N(CCCCN2CCC3(CC2)OCc2ccccc23)c2ccccc21 [FA4] has a reported EC50 of 1.53

---

# Tested on: BEAS-2B
# MEASUREMENT NOTES: Cell viability, MTT assay at 48 h
# Format: cell-based
# CONDITION INFO: Homo sapiens, read-out: EC50 ± SEM, normal cells BEAS-2B
Listed next: entries and their corresponding pEC50.
In plain terms, pEC50 is the concentration in mol/L turned into minus its base-10 logarithm.

These recorded examples may help you get a feel for the data.
STRUCTURE: COc1cc2c(cc1OC)CN(CCCCN1C(=O)/C(=N\NC(=S)N(C)C)c3ccccc31)CC2
pEC50: 4.92

STRUCTURE: CN(C)C(=S)N/N=C1\C(=O)Nc2ccccc21
pEC50: 5.47

STRUCTURE: CN(C)C(=S)N/N=C1\C(=O)N(CCCCN2CCC3(CC2)OCc2ccccc23)c2ccccc21
pEC50: 5.35

Then this compound:
The compound identified as CN(C)C(=S)N/N=C1\C(=O)N(CCCCN2CCN(C3CCCCC3)CC2)c2ccccc21 registered its pEC50 at 5.21
